Tested on: LOX IMVI
Test: NCI tumour cell line growth inhibition, 48 h
Active and inactive are the calls of the source. Rule as the data show it: active = GI50 up to about 1.1 µM and inactive = higher.
# maps each entry to its GI50

CCOC(=O)c1cn(CC)c(=O)n2c1nc1ccccc12 : 31.9 µM (inactive)
Cc1nn(-c2ccccc2)c2nc3c(c(C)nn3-c3ccccc3)c(-c3ccccc3Br)c12 : > 100 µM (inactive)

Task: # lookup: GI50 of c1ccc(SC2(Sc3ccccc3)CCCC2)cc1
Output: > 100 µM (inactive)

Task: # lookup: GI50 of [N-]=[N+]=CC(=O)OC1CCOCC1
Output: > 100 µM (inactive)

Task: # lookup: GI50 of O=c1cccccc1NCCCCCCCCCNc1cccccc1=O
Output: 5.9 µM (inactive)

Task: # lookup: GI50 of Cc1cc(OCc2nnc3sc(NC(=O)c4ccccc4)nn23)ccc1Cl
Output: 30.1 µM (inactive)

Task: # lookup: GI50 of CC(C)(C)C(=O)C1CC(=O)c2ccccc2C1=O (stereo unspecified)
Output: 40.8 µM (inactive)

Task: # lookup: GI50 of O=C(NC12CC3CC(CC(C3)C1)C2)n1cnc2cncnc21
Output: 25.8 µM (inactive)

Task: # lookup: GI50 of N#CC(C(=O)/C(=N\Nc1nc(S)nn1N)C(C#N)c1ccc(Cl)cc1)c1ccc(Cl)cc1 (stereo unspecified)
Output: > 100 µM (inactive)

Task: # lookup: GI50 of COC(=O)/C(=N\Nc1nnc(C)n1N)C(C#N)c1ccc(Cl)cc1 (stereo unspecified)
Output: > 100 µM (inactive)

Task: # lookup: GI50 of NC(=S)NS(=O)(=O)c1ccc(Cl)cc1
Output: > 100 µM (inactive)
